- Assay Name: Plasma pharmacokinetics after single oral dose, phase I; data geometric mean (coefficient of variation), t max median (range)
- Assay type: in vivo, healthy men
- Condition Summary: male, human, plasma, oral, 405 mg, 405 mg fasted; read-out: Vz/F
Reported Metric: Vd/F (L)
State just the number; it will be interpreted in L.

Lookup: Consider the compound shown here: C[C@@H](N)c1cc(Cl)ccc1Cn1c(=S)[nH]c(=O)c2[nH]ccc21 [AZD4831] What is its recorded Vd/F?
Found: 1270

---

- Assay Name: Plasma pharmacokinetics after single oral dose, phase I; data geometric mean (coefficient of variation), t max median (range)
- Format: in vivo, healthy men
- Condition Summary: male, human, plasma, oral, 405 mg, 405 mg fasted
- Protocol: Participants fasted overnight for at least 10 hours before dosing. […] Participants resided at the study centre until 48 hours postdose and attended a follow‐up visit 7–10 days after dosing. […] Blood samples were collected only up to 48 hours after dosing for the first cohort; the sampling schedule was amended thereafter to include the later time points. Samples for determination of AZD4831 in plasma were analysed by Covance Laboratories Ltd. (Harrogate, UK). […]
Reported Metric: Cmax (µM)
State just the number; it will be interpreted in µM.

Lookup: Consider the compound shown here: C[C@@H](N)c1cc(Cl)ccc1Cn1c(=S)[nH]c(=O)c2[nH]ccc21 What is its recorded Cmax?
Found: 3.04

---

- Assay Name: Urinary pharmacokinetics after single oral dose, phase I
- Type: in vivo, healthy men
- Condition Summary: male, human, urine, 135 mg, 135 mg fasted, geometric mean (CV), read-out: CLR (converted)
Reported Metric: CL renal (mL/min)
State just the number; it will be interpreted in mL/min.

Lookup: Consider the molecule shown here: C[C@@H](N)c1cc(Cl)ccc1Cn1c(=S)[nH]c(=O)c2[nH]ccc21 What is its recorded CL renal?
Found: 157

---

- Assay Name: Plasma pharmacokinetics after single oral dose, phase I; data geometric mean (coefficient of variation), t max median (range)
- Type: in vivo, healthy men
- Condition Summary: male, human, plasma, oral, 45 mg, 45 mg fasted; read-out: t 1/2λz (converted)
Reported Metric: half-life

Lookup: Consider the molecule shown here: C[C@@H](N)c1cc(Cl)ccc1Cn1c(=S)[nH]c(=O)c2[nH]ccc21 [AZD4831] What is its recorded half-life?
Found: 2990 min

---

- Assay Name: Plasma pharmacokinetics after single oral dose, phase I; data geometric mean (coefficient of variation), t max median (range)
- Assay type: in vivo, healthy men
- Condition Summary: male, human, plasma, oral, 45 mg, 45 mg fed
Reported Metric: AUC(0-t) (µM·h)
State just the number; it will be interpreted in µM·h.

Lookup: Consider the molecule shown here: C[C@@H](N)c1cc(Cl)ccc1Cn1c(=S)[nH]c(=O)c2[nH]ccc21 What is its recorded AUC(0-t)?
Found: 5.37

---

- Assay Name: Urinary pharmacokinetics after single oral dose, phase I
- Type: in vivo, healthy men
- Condition Summary: male, human, urine, 405 mg, 405 mg fasted, read-out: mean renal clearance (converted)
Reported Metric: CL renal (mL/min)
State just the number; it will be interpreted in mL/min.

Lookup: Consider the compound shown here: C[C@@H](N)c1cc(Cl)ccc1Cn1c(=S)[nH]c(=O)c2[nH]ccc21 [AZD4831] What is its recorded CL renal?
Found: 148

---

- Assay Name: Plasma pharmacokinetics after single oral dose, phase I; data geometric mean (coefficient of variation), t max median (range)
- Format: in vivo, healthy men
- Condition Summary: male, human, plasma, oral, 135 mg, 135 mg fasted; read-out: t 1/2λz (converted)
- Protocol: Participants fasted overnight for at least 10 hours before dosing. […] Participants resided at the study centre until 48 hours postdose and attended a follow‐up visit 7–10 days after dosing. […] Blood samples were collected only up to 48 hours after dosing for the first cohort; the sampling schedule was amended thereafter to include the later time points. Samples for determination of AZD4831 in plasma were analysed by Covance Laboratories Ltd. (Harrogate, UK). […]
Reported Metric: half-life (h)
State just the number; it will be interpreted in h.

Lookup: Consider the compound shown here: C[C@@H](N)c1cc(Cl)ccc1Cn1c(=S)[nH]c(=O)c2[nH]ccc21 What is its recorded half-life?
Found: 48.4
